Tested on: Mycobacterium tuberculosis Erdman (autoluminescent)
Test Description: GRinf, maximum normalised growth rate inhibition (unitless (-1 to 1)); higher = less effect (negative = killing)
Measurement Parameters: in vitro model: butyrate; time point: terminal (~4-5 doublings, model-specific)
Reported GRinf by item:
Write the value as a bare number.

Compound	Quantity Name	Meas Value
NNC(=O)c1ccncc1 [isoniazid] + COc1c(N2C[C@@H]3CCCN[C@@H]3C2)c(F)cc2c(=O)c(C(=O)O)cn(C3CC3)c12 [moxifloxacin]	GRinf	-0.0694

Prompt: Using known records, supply GRinf for CC(C)/N=c1\cc2n(-c3ccc(Cl)cc3)c3ccccc3nc-2cc1Nc1ccc(Cl)cc1 [clofazimine] + NC(=O)c1cnccn1 [pyrazinamide]
Response: -0.00889
